Below, each entry is listed with its recorded EC50 (nM), IL-8 secretion by primary human keratinocytes, 10 ng/ml human IL-36α.
# TEST SYSTEM: T1, human IL-36R (on cells) (human, UniProt Q9HB29 20-575)
# T1 sequence (looked up): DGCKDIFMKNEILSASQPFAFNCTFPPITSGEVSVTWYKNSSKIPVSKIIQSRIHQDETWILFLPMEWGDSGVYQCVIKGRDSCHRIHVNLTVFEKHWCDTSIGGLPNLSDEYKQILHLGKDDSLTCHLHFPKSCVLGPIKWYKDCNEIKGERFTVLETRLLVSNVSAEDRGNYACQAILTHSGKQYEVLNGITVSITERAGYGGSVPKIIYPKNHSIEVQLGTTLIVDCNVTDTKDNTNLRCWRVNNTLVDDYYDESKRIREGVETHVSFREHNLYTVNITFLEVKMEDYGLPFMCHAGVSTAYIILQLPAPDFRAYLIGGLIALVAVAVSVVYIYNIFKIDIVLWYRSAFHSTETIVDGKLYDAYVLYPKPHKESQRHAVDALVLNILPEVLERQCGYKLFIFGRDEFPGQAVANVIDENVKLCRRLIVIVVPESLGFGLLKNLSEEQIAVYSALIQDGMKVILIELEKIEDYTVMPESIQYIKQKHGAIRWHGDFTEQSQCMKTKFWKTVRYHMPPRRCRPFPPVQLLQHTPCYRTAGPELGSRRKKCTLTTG
# TEST DETAILS: cell-based or functional assay
RESULT TYPE: EC50 (nM), IL-8 secretion by primary human keratinocytes, 10 ng/ml human IL-36α

binder="Hzd 18D4 (APE7247) (antibody, V domains shown, also called APE6903; APE07247) VH: DVQFQESGPGLVKPSQTLSLTCTVTGYSITADFAWNWIRQPPGKGLEWIGYISYSGDTNYNPSLKSRVTITRDTSKNQFSLKLSSVTAADTAVYFCAIRGPYSFTYWGQGTLVTVSS VL: DIQMTQSPSSLSASVGDRVTITCRASQWINNYLNWYQQKPGKAPKLLIYYTSMLHSGVPSRFSPSGSGNDYTFTISSLQPEDIATYYCQQGHTLPWTFGGGTKVEIKR" result="0.142 nM"
binder="Humanized (HzD) 1D9 (APE5281) (antibody, V domains shown, also called 1D9 Humanized) VH: QVQLMQSGAEVKKPGASVKVSCKASGFTFTSYDINWVRQAPGQRLEWMGWIYPGDSSTKYNEKFKGRVTITADKSANTAYMELASLRSEDTAVYFCTRSFYTMDYWGQGTTVTVSS VL: DIVMTQSPLSLPVTPGEPASISCRSSKSLLHSNANTYLYWFLQKPGQSPQLLISRMSNLASGVPDRFSGSGSGTDFTLKISRVEAEDVGVYYCMQHLEYPFTFGQGTKLEIK" result="0.047 nM"
binder="Hzd 5D3 (APE6155) (antibody, V domains shown, also called APE6917; APE06155) VH: QVQLVQSGAEVKKPGASVKVSCKASGYTFTNYWMNWVRQAPRQGLEWMGMFHPTGDVTRLNQKFKDRVTMTRDTSTSTVYMELSSLRSEDTAVYYCARTTSMIIGGFAYWGQGTLVTVSS VL: DIVMTQTPLSLSVTPGQPASISCRSSKSLLHRNAITYFYWYLHKPGQPPQLLIYQMSNLASGVPDRFSGSGSGTDFTLKISRVEAEDVGVYYCAQNLELPLTFGGGTKVEIK" result="0.125 nM"
